Molecular target: HRV3C (Human rhinovirus 14, UniProt P03303)
Test: HRV3C protease assay (duplex, SAMDI-MS)
Type: biochemical, HRV
Settings: HRV3C, 30 mins preincubation, class symbols; read-out: HRV IC50
pIC50: −log10 of the molar value.
Recorded endpoint: pIC50

Worked examples, 2 molecules total:
O=C1NCC[C@H]1C[C@H](NC(=O)[C@@H]1[C@H]2CCC[C@H]2CN1C(=O)c1cc2c(OC(F)F)cc(Cl)cc2[nH]1)C(=O)CO; 4.70 to 5.70
COc1cccc2[nH]c(C(=O)N3C[C@@H]4CCC[C@@H]4[C@H]3C(=O)N[C@@H](C[C@@H]3CCNC3=O)C(=O)C(=O)N[C@H]3CCOC3)cc12; 5.70 to 6.70

# context switch: different molecule, same pIC50
Query :: GET /values?readout=pIC50&item= O=C1NCC[C@H]1C[C@H](NC(=O)[C@@H]1[C@H]2CCC[C@H]2CN1C(=O)c1cc(S(=O)(=O)c2ccccc2)c[nH]1)C(=O)CO
Result :: 4.70 to 5.70
